measurement-target: NAD-dependent protein deacylase sirtuin-5, mitochondrial (Homo sapiens)
assay-protocol: blockers of sirtuin-5 deacylase activity – biochemical, fluorescence imaging, single point, set 5, primary screen (AID 652115)
recorded-conditions: Purified SirT5, succinyl-peptide AMC, trypsin-coupled fluorescence; at 15 µM; active compounds read high
The whole screen tested about 330,000 compounds, of which about 3,800 (1.2%) were called active. Shown is part of a subset that was picked to be rich in actives.
readout-type: inhibition (%)
Please reply with the bare figure in % and do not write the unit itself.

Consider the worked cases shown below.
| smiles-repr | measurement-target | readout-type | numeric-value |
| --- | --- | --- | --- |
| OC[C@@H]1CN(Cc2cccs2)C[C@H](n2cnc3c(NC4CCCC4)ncnc32)O1 | NAD-dependent protein deacylase sirtuin-5, mitochondrial (Homo sapiens) | inhibition | 5.79 |
| COCC(=O)N1[C@H](CO)[C@@H](c2ccccc2)[C@H]1CN(C)C(=O)c1ccncc1 | NAD-dependent protein deacylase sirtuin-5, mitochondrial (Homo sapiens) | inhibition | 3.21 |
| O=C(Nc1cc(F)ccc1F)N[C@H]1CC[C@@H](CCn2cc(C3CCCC3)nn2)O[C@@H]1CO | NAD-dependent protein deacylase sirtuin-5, mitochondrial (Homo sapiens) | inhibition | -0.428 |
| COc1ccc(CN(C)C[C@H]2Oc3c(NS(=O)(=O)c4ccccc4)cccc3C(=O)N([C@@H](C)CO)C[C@H]2C)cc1 | NAD-dependent protein deacylase sirtuin-5, mitochondrial (Homo sapiens) | inhibition | 26.9 |
| COc1ccc(CN(C)C[C@H]2Oc3c(NS(=O)(=O)c4ccccc4)cccc3C(=O)N([C@H](C)CO)C[C@@H]2C)cc1 | NAD-dependent protein deacylase sirtuin-5, mitochondrial (Homo sapiens) | inhibition | 6.84 |

query: Quick one: give measured inhibition for `OC[C@@H]1CN(Cc2cccs2)C[C@H](n2cnc3c(Nc4ccccc4)ncnc32)O1`
result: 19.4

query: Quick one: give measured inhibition for `COc1ccc(CN(C)C[C@H]2Oc3c(NS(=O)(=O)c4ccc(C)cc4)cccc3C(=O)N([C@@H](C)CO)C[C@@H]2C)cc1`
result: -2.22

query: Quick one: give measured inhibition for `COc1ccc(S(=O)(=O)Nc2ccc3c(c2)C(=O)N([C@H](C)CO)C[C@H](C)[C@@H](CN(C)Cc2ccc(-c4ccccc4)cc2)O3)cc1`
result: 16.6

###

inhibition values for the compounds below.
measurement-target: NAD-dependent protein deacylase sirtuin-5, mitochondrial (Homo sapiens) (UniProt Q9NXA8)
Sequence (Q9NXA8 whole entry, looked up): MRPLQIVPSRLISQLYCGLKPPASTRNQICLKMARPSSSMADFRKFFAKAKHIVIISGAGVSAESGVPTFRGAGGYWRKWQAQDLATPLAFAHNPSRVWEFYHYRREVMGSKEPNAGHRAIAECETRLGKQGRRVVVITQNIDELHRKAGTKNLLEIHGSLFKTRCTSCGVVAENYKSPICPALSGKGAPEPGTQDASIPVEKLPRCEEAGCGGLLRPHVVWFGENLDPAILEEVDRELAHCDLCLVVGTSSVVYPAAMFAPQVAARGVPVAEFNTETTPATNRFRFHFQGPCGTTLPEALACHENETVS
assay-protocol: blockers of sirtuin-5 deacylase activity – biochemical, fluorescence imaging, single point, set 5, primary screen (AID 652115)
recorded-conditions: Purified SirT5, succinyl-peptide AMC, trypsin-coupled fluorescence; at 15 µM; active compounds read high
In all, about 330,000 compounds went through this assay and about 3,800 (1.2%) were called active. This excerpt belongs to a sample that is enriched for actives.
Please reply with the bare figure in % and do not write the unit itself.

Consider the worked cases shown below.
| compound | measurement-target | readout-type | numeric-value |
| --- | --- | --- | --- |
| CC(=O)c1ccc(NC(=O)Cn2c(=O)oc3ccccc32)cc1 | NAD-dependent protein deacylase sirtuin-5, mitochondrial (Homo sapiens) (UniProt Q9NXA8) | inhibition | -1.5 |
| COc1ccc(C[C@@H]2CCc3cnnn3COC[C@H](c3ccccc3)NC2=O)cc1 | NAD-dependent protein deacylase sirtuin-5, mitochondrial (Homo sapiens) (UniProt Q9NXA8) | inhibition | 2.11 |
| NC(=O)Cn1c(=O)oc2ccccc21 | NAD-dependent protein deacylase sirtuin-5, mitochondrial (Homo sapiens) (UniProt Q9NXA8) | inhibition | 23.1 |

query: Quick one: give measured inhibition for `O=C(CN1CCOCC1)NCC[C@H]1CC[C@@H](NC(=O)Nc2ccc(Cl)cc2)[C@@H](CO)O1`
result: 2.34

query: Quick one: give measured inhibition for `CN(C)C(=O)[C@@H]1[C@@H](CO)[C@@H]2Cn3c(ccc(-c4ccccc4)c3=O)[C@@H]2N1CCC(F)(F)F`
result: 0.07

query: Quick one: give measured inhibition for CC(Sc1nnc(CNC(=O)c2ccccc2F)n1C)C(=O)Nc1nccs1 (stereo not given)
result: -2.13
